Form field: self-cleavage (one value per entry).
B1: HDV Ribozyme (parent)
chain: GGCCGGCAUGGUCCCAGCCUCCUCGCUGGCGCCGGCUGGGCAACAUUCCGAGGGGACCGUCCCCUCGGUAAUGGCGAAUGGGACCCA

- Variants of: B1
- Assay method text: self-cleavage, relative activity (ratio to wild type); higher = more cleavage; co-transcriptional
Give the figure by itself; no unit, no explanation.

Completed entries (count: 2):
Sequence text | self-cleavage
GGCCGGCAUGGUCCCAGCCUCCUCGCUGGCGCCGGCUGGCCAACAUUCCGAGGGGACCGUCCCCUCGGUAAUCGCGAAUGGGACCCA | 0.185
GGCCGGCAUGGUCCCAGCCUCCUCGCUGGCGCCGGCUGGGCAACAUUCCGAGGGGACCGUCCCCUCGGUAAUGGCGAAUGGGAACGA | 0.755

In the following, a different variant is considered.
State the recorded self-cleavage for this entry: GGCCGGCAUGGUCCCAGCCUCCUCGCUGGCGCCGGCUGGGCAACAUUCCGAGGUAACCGUCCCCUCGGUAAUGGCGAAUGGGACCCA
1.01
